Where do the numbers come from? From the DeepSol protein solubility set.

# Assay text: soluble on expression in E. coli; label from the status in PepcDB or PDB records
Endpoint label: soluble on expression in E. coli

Reference set (6 entries):
Sequence entry	Experimental result
MGPEGALPKASEATVCANNSKVSSPGEKVVLWTREADRVILTMCQEQGAQPHTFSVISQQLGNKTPVEVSHRFRELMQLFHTACEASSEDEDDATSTSNADQLSDHGDLLSEEELDE	soluble
MGHHHHHHSHMAPGGLFLPYHSLPQPDFLASCPTRHLKLCQCPGILAENPHQFSPTFPPGKGSCQHGALPGQVSLKEAAHTEMSLSGQDLFPSPAHPPLQPFWLPFSLCLSTPFLVADNELRLPKGQICPLHVFVLANRVVLKLCANSVWEHSKGIT	not soluble
MAHHHHHHMSGEKKEALKNDLPPIPGCDTDGQTYKSAEEMWAAELRGNLYDAETGWYGRSLQYWSKVPATVSGVLGGMEHIHDVDLKESRAFITSIPDRGTSRALDCGAGIGRVTKYLLSTLYTVTDLLEPVANMLEKAKEELKGYPVGEFFLSSMETVNLKPNTYDLIVIQWTAIYLTDDDFVKFLAHCKTALTLRGYIFFKENCSCDERFVVDKEDSSLTRSDAHYKRIFAAAGVEVVKETMQKEWPDDLFKVKMYALR	soluble
MGYRNLPPHLNPLAPLALDDPPGWLTSFKLRRLTADQCASLLAEANRRRLIASRPVADSEGSCPLRNVVRVANFGSVQLSSSFLASCPLALSSALYIEQQAKPLTRQLMASDLRQIDHLGSFACRNIYHRQQARRSEHATADALDVSGFRLADGRRVSVLQGWRSETSRPWLAALLSSSCHYFGNALGPEYNAAHANHFHFGMRGQGFCFLEHHHHHH	not soluble
MAHHHHHHMHTKHTRRPVDTHKRNTMPLIRPGMPKPPQGFDVVLAKLEEYDEQMKLATQEESKGVVGVTTRPRHSGGFGARKRMRDDDANAEDGTVAPPAEASSTVAAAESEAGTSTAGDDNAEAKEEPPIPPLWRMAAINRARTRYVFLAYYKQHIISKEVYDYCVDTRLIDGGLARRWRLPGYERLCCTACGVPGAASLAASITSKYALRDRQERRLTTSASQQRIHDTATCLCRVPAAQRRSKHFVACAACGCHGCCSADAMKGPKEGDGGEKTDKTREEPSVNAPGRGEA	not soluble
SPGQGTQSENSCTHFPGNLPNMLRDLRDAFSRVKTFFQMKDQLDNLLLKESLLEDFKGYLGCQALSEMIQFYLEEVMPQAENQDPDIKAHVNSLGENLKTLRLRLRRCHRFLPCENKSKAVEQVKNAFNKLQEKGIYKAMSEFDIFINYIEAYMTMKIRN	soluble

Now turn to the next sequence.
Fill in: soluble on expression in E. coli of MPKRRYNPSANEEEKIPIVEKLYRENQESDFLGGGFCDDDDEVQERREQISEMRQKREEAAHNLIQAPENCEKCDKGLMDSWLWERYNCAVCDACRDDKGEHKLLARTEVKNTYLLKDCDLDLRKPKLRYWAKKNPHNPRYGDMKLYLKCQIETRVLEVHGSWEDLELKKELREQSKEVRSEKRFEKKLKDLRQQIRGTSGVKVDFGRPHTHEFGKETHVEEDTWRRTCITCEYEEVFEKL is ___
not soluble

====

# Assay text: soluble on expression in E. coli; label from the status in PepcDB or PDB records

Sequence entry	soluble on expression in E. coli
NTDKHIYLEEHISPESQPMLSTYFRSMGKPRSIKENVLTVPQDASPETLALYYFARIYLERYEGVPLPDDMPDLIEFGRKHNMPWVVAEAKLNKAIRMIELDDDWHAELLLHDVIGESRDIGYLALQGRAYRWMGNLEIARNQIHNGLKHYRTAYELLENTVFEIQVAMTLNNIGTVYLDSSDWNRASNYLKQALDVYESSEYEYDNS	not soluble
MSLTQFKKFAEHISSCFSPSAIQEFSRKSKIVKRKRMFTIDHLLWLCVWQEKNMGDSSLIDMCASLWQQFGIKISPEGLNQRFNEKSTAFLKLLFHSILEKQTPDLAAIQHAYSTHFNRIRILDSTSFQLPNTFSDKYPGNGCLMQLKSAEGHHHHHH	not soluble
MSSKYNSLKLVKVKNVGDFVYKVSLNRPSKFNALNMVIWKEIGDCFQLIDEDPECRVVILQGEGKHFCSGLDLSEVTFLNGEEADDSARRGRSILRTIKFMQKQFTYIDECSKPVILAMHGYCLGAALDIATACDVRVATKDAVLSVKEVDIGMAADVGTLNRLPKIVGNHSWIKDISLSARHFSAGEALQFGLLSRVYDTREEMINEVLKMAKLIALKSPVGVQGTKNALNYARDHTVENSLNYVATWNMSQLFTDDIMKASMASLSKQPTPPFSKL	not soluble
